# credit: paper PMC3567311

# Target entity: Kvβ2 (Rattus norvegicus, UniProt P62483, W272A)
# Sequence (P62483 36-361 W272A): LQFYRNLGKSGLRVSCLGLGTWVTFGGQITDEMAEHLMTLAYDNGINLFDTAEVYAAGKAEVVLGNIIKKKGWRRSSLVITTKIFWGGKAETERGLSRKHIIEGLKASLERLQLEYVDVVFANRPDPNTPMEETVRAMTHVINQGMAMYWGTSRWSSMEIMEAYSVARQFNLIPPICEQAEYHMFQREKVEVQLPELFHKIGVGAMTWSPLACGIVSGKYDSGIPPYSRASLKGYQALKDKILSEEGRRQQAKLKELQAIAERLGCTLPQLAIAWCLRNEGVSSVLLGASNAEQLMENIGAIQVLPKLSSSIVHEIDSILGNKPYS
Recorded metric: Ki (µM)
Give just the number in µM; leave the unit off.

Prompt: Item: C[C@]12CCC(=O)C=C1CC[C@@H]1[C@@H]2C(=O)C[C@@]2(C)[C@H]1CC[C@]2(O)C(=O)CO Test system: Kvβ2 (Rattus norvegicus, UniProt P62483, W272A) Read-out: Ki Value: ?
Completion: 30
